# testSystem: human melanocortin 1 receptor (human, UniProt Q01726 1-317)
# Sequence (Q01726 whole entry): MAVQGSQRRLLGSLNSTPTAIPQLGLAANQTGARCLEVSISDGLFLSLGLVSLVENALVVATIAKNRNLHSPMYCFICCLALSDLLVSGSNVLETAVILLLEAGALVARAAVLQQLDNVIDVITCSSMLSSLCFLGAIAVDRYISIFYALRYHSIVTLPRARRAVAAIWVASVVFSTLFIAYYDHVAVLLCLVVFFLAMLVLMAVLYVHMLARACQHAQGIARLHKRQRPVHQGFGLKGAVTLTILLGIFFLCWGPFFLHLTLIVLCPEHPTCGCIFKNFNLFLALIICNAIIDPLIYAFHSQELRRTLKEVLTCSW
# experimentalProtocol: cell-based or functional assay
Positions of bridges follow the written chain, without caps; N, C: chain ends. Non-standard residues stand in square brackets, D forms with d.
metric: MC1R cAMP EC50 (nM)
Numbers only, in nM.

Reported MC1R cAMP EC50 for cyclo(CKH[dF]HWCAKKKR) (disulfide 1-7; SMILES C[C@@H]1NC(=O)[C@@H]2CSSC[C@H](NC(=O)[C@H](CCCNC(=N)N)NC(=O)[C@H](CCCCN)NC(=O)[C@H](CCCCN)NC(=O)[C@H](CCCCN)NC1=O)C(=O)N[C@@H](CCCCN)C(=O)N[C@@H](Cc1c[nH]cn1)C(=O)N[C@H](Cc1ccccc1)C(=O)N[C@@H](Cc1c[nH]cn1)C(=O)N[C@@H](Cc1c[nH]c3ccccc13)C(=O)N2, also called c[c[Cys-Lys-His-D-Phe-His-Trp-Cys]-Ala-Lys-Lys-Lys-Arg]) [Chem. 78] was 3.8
